# assay_text: Pharmacokinetic study in rats after oral and intratracheal administration of curcumin (plasma, LC-MS/MS)
# Type: in vivo, Sprague-Dawley rats
# assay_setup: male, Sprague-Dawley, rat, plasma, inhaled or intranasal, 10 mg/kg, rat plasma, i.t. curcumin 10 mg/kg (27.17 μmol/kg), mean ± SD, n = 6; read-out: AUC(0–t)
# Procedure: This preparation was then diluted with saline to obtain the desired concentrations for animal experiments. Twelve male SD rats were randomly divided into two groups with six rats each, one for oral administration and the other for inhalation administration. […] Blood samples of approximately 200 μL were collected via intravenous routes at pre-determined time points: before administration and at 5, 15, 30, and 45 min, and 1, 2, 4, 6, and 8 h post-administration. […]
reported_metric: AUC(0-t)
Numeric answer plus unit only.

State the recorded AUC(0-t) for this entry: COc1cc(/C=C/C(=O)CC(=O)/C=C/c2ccc(O)c(OC)c2)ccc1O [CUR, Curcumin] 1.33 µM·h

###

# assay_text: Pharmacokinetic study in rats after oral and intratracheal administration of curcumin (plasma, LC-MS/MS)
# Type: in vivo, Sprague-Dawley rats
# assay_setup: rat plasma, p.o. curcumin 20 mg/kg (54.34 μmol/kg), mean ± SD, n = 6
# Procedure: This preparation was then diluted with saline to obtain the desired concentrations for animal experiments. Twelve male SD rats were randomly divided into two groups with six rats each, one for oral administration and the other for inhalation administration. […] Blood samples of approximately 200 μL were collected via intravenous routes at pre-determined time points: before administration and at 5, 15, 30, and 45 min, and 1, 2, 4, 6, and 8 h post-administration. […]
Give Cmax for every item shown.
Answers are plain numbers, in nM.

[
  {
    "structure_as_smiles": "COc1cc(/C=C/C(=O)CC(=O)/C=C/c2ccc(OS(=O)(=O)O)c(OC)c2)ccc1O",
    "uom": "nM",
    "Cmax": 23.4
  }
]

Let's switch to this compound now.
Recorded Cmax of COc1cc(/C=C/C(=O)CC(=O)/C=C/c2ccc(O[C@@H]3O[C@H](C(=O)O)[C@@H](O)[C@H](O)[C@H]3O)c(OC)c2)ccc1O , please. 830

###

# assay_text: Pharmacokinetic study in rats after oral and intratracheal administration of curcumin (plasma, LC-MS/MS)
# Assay type: in vivo, Sprague-Dawley rats
# assay_setup: male, Sprague-Dawley, rat, plasma, inhaled or intranasal, 10 mg/kg
reported_metric: Cmax (nM)
One number for each entry, in nM.

May I ask what Cmax has been recorded for COc1cc(/C=C/C(=O)CC(=O)/C=C/c2ccc(O)c(OC)c2)ccc1O [CUR, Curcumin] ? 2880

###

# assay_text: Pharmacokinetic study in rats after oral and intratracheal administration of curcumin (plasma, LC-MS/MS)
# Assay type: in vivo, Sprague-Dawley rats
# assay_setup: male, Sprague-Dawley, rat, plasma, inhaled or intranasal, 10 mg/kg; read-out: MRT(0–t)
reported_metric: MRT last (h)
Give bare numbers, in h.

Query (molecule): COc1cc(/C=C/C(=O)CC(=O)/C=C/c2ccc(O)c(OC)c2)ccc1O ; field requested: MRT last 2.01

###

# assay_text: Pharmacokinetic study in rats after oral and intratracheal administration of curcumin (plasma, LC-MS/MS)
# Type: in vivo, Sprague-Dawley rats
# assay_setup: male, Sprague-Dawley, rat, plasma, inhaled or intranasal, 10 mg/kg, rat plasma, i.t. curcumin 10 mg/kg, dose-normalized to oral dose (inhalation/0.5); read-out: AUC(0–t)/0.5
reported_metric: AUC(0-t) (nM·h)
Give bare numbers, in nM·h.

For the molecule COc1cc(/C=C/C(=O)CC(=O)/C=C/c2ccc(O)c(OC)c2)ccc1O , what AUC(0-t) is on record? 2650

###

# assay_text: Pharmacokinetic study in rats after oral and intratracheal administration of curcumin (plasma, LC-MS/MS)
# Format: in vivo, Sprague-Dawley rats
# assay_setup: male, Sprague-Dawley, rat, plasma, inhaled or intranasal, 10 mg/kg
reported_metric: half-life (h)
Numbers only, in h.

May I ask what half-life has been recorded for COc1cc(/C=C/C(=O)CC(=O)/C=C/c2ccc(O)c(OC)c2)ccc1O ? 3.73
